# Assayed system: T1, FPR1 (UniProt P21462 1-350, limits assumed)
# T1 sequence (looked up): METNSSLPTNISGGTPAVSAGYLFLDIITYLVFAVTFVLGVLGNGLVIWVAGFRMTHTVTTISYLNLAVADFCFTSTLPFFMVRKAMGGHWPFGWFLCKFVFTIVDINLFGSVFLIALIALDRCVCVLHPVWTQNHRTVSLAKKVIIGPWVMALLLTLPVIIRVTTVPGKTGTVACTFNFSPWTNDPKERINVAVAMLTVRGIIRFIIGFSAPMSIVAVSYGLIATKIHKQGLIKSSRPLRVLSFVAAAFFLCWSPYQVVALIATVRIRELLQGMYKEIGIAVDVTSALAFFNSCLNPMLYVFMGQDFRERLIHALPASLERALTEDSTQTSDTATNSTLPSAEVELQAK
# Assay name: cell-based or functional assay
Endpoint label: EC50 for [Ca2+]

>>> value("MKYKPM (HELM PEPTIDE1{[ac].M.K.Y.K.P.[dM].[am]}$$$$V2.0; SMILES CSCC[C@H](NC(C)=O)C(=O)N[C@@H](CCCCN)C(=O)N[C@@H](Cc1ccc(O)cc1)C(=O)N[C@@H](CCCCN)C(=O)N1CCC[C@H]1C(=O)N[C@H](CCSC)C(N)=O) [peptide of SEQ ID NO 71]")
"> 10 µM"
>>> value("IKYKVM (HELM PEPTIDE1{[ac].I.K.Y.K.V.[dM].[am]}$$$$V2.0; SMILES CC[C@H](C)[C@H](NC(C)=O)C(=O)N[C@@H](CCCCN)C(=O)N[C@@H](Cc1ccc(O)cc1)C(=O)N[C@@H](CCCCN)C(=O)N[C@H](C(=O)N[C@H](CCSC)C(N)=O)C(C)C) [peptide of SEQ ID NO 135]")
"> 10 µM"
>>> value("RMRYKYM (HELM PEPTIDE1{[CCCCCCCC(=O)[*:2]].R.M.R.Y.K.Y.[dM].[am]}$$$$V2.0; SMILES CCCCCCCC(=O)N[C@@H](CCCNC(=N)N)C(=O)N[C@@H](CCSC)C(=O)N[C@@H](CCCNC(=N)N)C(=O)N[C@@H](Cc1ccc(O)cc1)C(=O)N[C@@H](CCCCN)C(=O)N[C@@H](Cc1ccc(O)cc1)C(=O)N[C@H](CCSC)C(N)=O) [peptide of SEQ ID NO 40]")
"> 10 µM"

All values here come from patent US20250361268A1.
